assay: Solubility determination for selected C5aR-antagonists; type: physicochemical; settings: 20 mM HEPES pH 7.4, 24 h at RT
Starred links: 1 amine or outer side, 2 acyl side, 3 side chain; linkers in the order of their positions; H or OH if unused. Positions of bridges follow the written chain, without caps; N, C: chain ends. Non-standard residues stand in square brackets, D forms with d. Residues, ends and D or L forms follow the SMILES beside them. X1 = COC1O[C@H](C(=O)[*:2])[C@@H](O)[C@H](O)[C@H]1N[*:1]; Hyp = O=C(O)[C@@H]1C[C@@H](O)CN1; dCha = N[C@H](CC1CCCCC1)C(=O)O; Nle = CCCC[C@H](N)C(=O)O; Orn = NCCC[C@H](N)C(=O)O
Parameter: Solubility in 20 mM HEPES pH 7.4 (% of 200 μM). Scope: all listed entries.

Input line: # get_value(readout='Solubility in 20 mM HEPES pH 7.4 (% of 200 μM)', item= CCCC[C@@H]1NC(=O)[C@H](Cc2c[nH]c3ccccc23)NC(=O)[C@@H](CC2CCCCC2)NC(=O)[C@@H]2CCCN2C(=O)[C@@H](NC(=O)[C@H](Cc2ccccc2)NC(=O)[C@H](CCCCN)NC(C)=O)CCCNC1=O [Compound 43, Ac-Lys-Phe-[Orn-Pro-cha-Trp-Nle]] (Ac-KF[Orn]P[dCha]W[Nle]; lactam 3-C) )
Output line: 93 % of 200 μM

Input line: Okay, and CCCC[C@@H]1NC(=O)[C@H](Cc2c[nH]c3ccccc23)NC(=O)[C@@H](CC2CCCCC2)NC(=O)[C@@H]2CCCN2C(=O)[C@@H](NC(=O)[C@H](Cc2ccccc2)NC(=O)[C@H]2OC(OC)[C@H](NC(C)=O)[C@@H](O)[C@@H]2O)CCCNC1=O (stereo partly drawn) [Compound 4] (Ac-[X1]F[Orn]P[dCha]W[Nle]; lactam 3-C) ?
Output line: 84 % of 200 μM

Input line: Query CC(=O)N[C@@H](Cc1ccccc1)C(=O)N[C@H]1CCCNC(=O)[C@H](Cc2ccccc2)NC(=O)[C@H](Cc2c[nH]c3ccccc23)NC(=O)[C@@H](CC2CCCCC2)NC(=O)[C@@H]2C[C@@H](O)CN2C1=O [Compound 2, Ac-Phe-[Orn-Hyp-cha-Trp-Phe]] (Ac-F[Orn][Hyp][dCha]WF; lactam 2-C) next
Output line: 13 % of 200 μM

----------
target: human C5aR(CD88) (Homo sapiens, UniProt P21730); construct: expressed in transfected cells; host or cells: rat basophilic leukemia cells (RBL); assay: Determination of EC50-values in an enzyme release assay (agonistic activity); type: cell-based; settings: agonistic activity, no C5a added; read-out: EC50
Positions of bridges follow the written chain, without caps; N, C: chain ends. Non-standard residues stand in square brackets, D forms with d. Residues, ends and D or L forms follow the SMILES beside them. *: point of attachment. Bta = N[C@@H](Cc1csc2ccccc12)C(=O)O; Hydrocinnamoyl = O=C(CCc1ccccc1)*; dCha = N[C@H](CC1CCCCC1)C(=O)O; Pip = O=C(O)[C@@H]1CCCCN1; Nle = CCCC[C@H](N)C(=O)O; Orn = NCCC[C@H](N)C(=O)O; Aze = O=C(O)[C@@H]1CCN1
property measured: EC50

Answered cases to consult:
{"compound": "CC(=O)N[C@@H](Cc1ccccc1)C(=O)N[C@@H](CCCN)C(=O)N1CC[C@H]1C(=O)N[C@H](CC1CCCCC1)C(=O)N[C@@H](Cc1c[nH]c2ccccc12)C(=O)N[C@@H](Cc1ccccc1)C(N)=O [Compound 83, Ac-Phe-Orn-Aze-cha-Trp-Phe-NH2] (Ac-F[Orn][Aze][dCha]WF-NH2)", "EC50": "> 100 µM"}
{"compound": "CCCC[C@@H]1NC(=O)[C@H](Cc2c[nH]c3ccccc23)NC(=O)[C@@H](CC2CCCCC2)NC(=O)[C@@H]2CCCN2C(=O)[C@@H](NC(=O)[C@H](Cc2ccccc2)NC(=O)CON=CC(O)C(O)C(O)C(O)CO)CCCNC1=O (single isomer, unassigned)", "EC50": "> 1.43 µM"}
{"compound": "CC(=O)N[C@@H](Cc1ccccc1)C(=O)N[C@@H](CCCNC(=N)N)C(=O)N1CCC[C@H]1C(=O)N[C@H](CC1CCCCC1)C(=O)N[C@@H](Cc1c[nH]c2ccccc12)C(=O)N[C@@H](Cc1ccccc1)C(N)=O [Compound 88, Ac-Phe-Arg-Pro-cha-Trp-Phe-NH2] (Ac-FRP[dCha]WF-NH2)", "EC50": "> 100 µM"}
{"compound": "CC(=O)N[C@@H](Cc1ccccc1)C(=O)N[C@H]1CCCNC(=O)[C@H](Cc2ccccc2)NC(=O)[C@H](Cc2c[nH]c3ccccc23)NC(=O)[C@@H](CC2CCCCC2)NC(=O)[C@@H]2CCCN2C1=O [Compound 1, Ac-Phe-[Orn-Pro-cha-Trp-Phe]] (Ac-F[Orn]P[dCha]WF; lactam 2-C)", "EC50": "> 1.43 µM"}
{"compound": "CCCC[C@@H]1NC(=O)[C@H](Cc2c[nH]c3ccccc23)NC(=O)[C@@H](CC2CCCCC2)NC(=O)[C@@H]2CCCN2C(=O)[C@@H](NC(=O)CCc2ccccc2)CCCNC1=O [Compound 41, Ph-CH2—CH2—CO-[Orn-Pro-cha-Trp-Nle]] (Hydrocinnamoyl-[Orn]P[dCha]W[Nle]; lactam 1-C)", "EC50": "> 1.43 µM"}
{"compound": "CC(=O)N[C@@H](Cc1ccccc1)C(=O)N[C@@H](CCCN)C(=O)N1CCC[C@H]1C(=O)N[C@H](CC1CCCCC1)C(=O)N[C@@H](Cc1csc2ccccc12)C(=O)N[C@@H](Cc1ccccc1)C(N)=O [Compound 62, Ac-Phe-Orn-Pro-cha-Bta-Phe-NH2] (Ac-F[Orn]P[dCha][Bta]F-NH2)", "EC50": "> 100 µM"}

Now consider the entry below.
Input line: Return reported EC50; argument: CC(=O)N[C@@H](Cc1ccccc1)C(=O)N[C@@H](CCCN)C(=O)N1CCCC[C@H]1C(=O)N[C@H](CC1CCCCC1)C(=O)N[C@@H](Cc1c[nH]c2ccccc12)C(=O)N[C@@H](Cc1ccccc1)C(N)=O [Compound 55, Ac-Phe-Orn-Pip-cha-Trp-Phe-NH2] (Ac-F[Orn][Pip][dCha]WF-NH2)
Output line: > 100 µM

----------
Target: human C5aR(CD88) (Homo sapiens, UniProt P21730)
Construct: expressed in transfected cells; host or cells: rat basophilic leukemia cells (RBL)
Sequence (P21730 1-350): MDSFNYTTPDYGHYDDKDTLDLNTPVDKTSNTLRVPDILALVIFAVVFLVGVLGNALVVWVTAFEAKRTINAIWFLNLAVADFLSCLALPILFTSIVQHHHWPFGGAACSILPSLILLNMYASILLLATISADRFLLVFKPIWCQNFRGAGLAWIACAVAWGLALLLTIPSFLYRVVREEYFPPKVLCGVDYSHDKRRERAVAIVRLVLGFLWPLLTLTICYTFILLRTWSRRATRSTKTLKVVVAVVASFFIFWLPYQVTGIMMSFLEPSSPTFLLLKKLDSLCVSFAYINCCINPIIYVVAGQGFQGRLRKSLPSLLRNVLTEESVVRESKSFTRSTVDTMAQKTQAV
Assay: Determination of the IC50 value in an enzyme release assay (functional assay, antagonistic activity)
Type: cell-based
Settings: antagonistic activity; IC50 group in enzyme release assay, RBL cells expressing human C5aR(CD88); read-out: activity (group)
pIC50: −log10 of the molar value. Non-standard residues stand in square brackets, D forms with d. Residues, ends and D or L forms follow the SMILES beside them. 1Nal = N[C@@H](Cc1cccc2ccccc12)C(=O)O; Bta = N[C@@H](Cc1csc2ccccc12)C(=O)O; Tic = O=C(O)[C@@H]1Cc2ccccc2CN1; dCha = N[C@H](CC1CCCCC1)C(=O)O; Orn = NCCC[C@H](N)C(=O)O; Aze = O=C(O)[C@@H]1CCN1; Dab = NCC[C@H](N)C(=O)O
// reported pIC50 for each item listed

{"compound": "CC(=O)N[C@@H](Cc1ccccc1)C(=O)N[C@@H](CCN)C(=O)N1CC[C@H]1C(=O)N[C@H](CC1CCCCC1)C(=O)N[C@@H](Cc1csc2ccccc12)C(=O)N[C@@H](Cc1ccccc1)C(N)=O [Compound 213, Ac-Phe-Dab-Aze-cha-Bta-Phe-NH2] (Ac-F[Dab][Aze][dCha][Bta]F-NH2)", "pIC50": "7.30 to 7.70"}

Input line: Which measured pIC50 value corresponds to CC(=O)N[C@@H](Cc1ccccc1)C(=O)N[C@@H](CCCN)C(=O)N1CCC[C@H]1C(=O)N[C@H](CC1CCCCC1)C(=O)N[C@@H](Cc1c[nH]c2ccccc12)C(=O)N[C@@H](Cc1cccc2ccccc12)C(N)=O [Compound 94, Ac-Phe-Orn-Pro-cha-Trp-1Ni—NH2] (Ac-F[Orn]P[dCha]W[1Nal]-NH2) ?
Output line: 7.30 to 7.70

Input line: And then CC(=O)N[C@@H](Cc1ccccc1)C(=O)N[C@@H](CCCN)C(=O)N1Cc2ccccc2C[C@H]1C(=O)N[C@H](CC1CCCCC1)C(=O)N[C@@H](Cc1c[nH]c2ccccc12)C(=O)N[C@@H](Cc1ccccc1)C(N)=O [Compound 107, Ac-Phe-Orn-Tic-cha-Trp-Phe-NH2] (Ac-F[Orn][Tic][dCha]WF-NH2) , what is it?
Output line: 6.70 to 7.30
